The reported measurements were obtained from ChEMBL document CHEMBL1135037.

Target: Serine-threonine protein phosphatase 2A regulatory subunit (Gallus gallus)
Sequence (whole entry): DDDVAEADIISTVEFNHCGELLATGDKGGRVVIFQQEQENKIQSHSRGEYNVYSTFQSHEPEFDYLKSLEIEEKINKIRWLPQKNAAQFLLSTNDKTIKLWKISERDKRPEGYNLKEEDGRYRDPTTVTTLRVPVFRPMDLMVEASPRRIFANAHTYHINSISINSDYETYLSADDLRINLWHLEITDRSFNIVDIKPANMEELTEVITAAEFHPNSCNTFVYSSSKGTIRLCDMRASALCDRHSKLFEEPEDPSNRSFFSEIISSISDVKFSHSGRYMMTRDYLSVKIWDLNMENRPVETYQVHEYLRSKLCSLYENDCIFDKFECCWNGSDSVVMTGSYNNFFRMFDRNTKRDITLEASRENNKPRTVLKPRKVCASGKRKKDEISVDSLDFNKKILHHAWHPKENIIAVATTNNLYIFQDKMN
Experiment: Inhibition against PP2A at 100 uM
Please enter Condition met where inhibition is greater than or equal to 3%, and Condition not met where it is lower.

Example cases with answers are listed next.
[
  {
    "compound": "O=C1OC(=O)C2C1[C@@H]1C=C[C@H]2S1 (stereo not given in full)",
    "assigned class": "Condition not met"
  },
  {
    "compound": "O=C1OC(=O)C2C1[C@@H]1CC[C@H]2O1 (stereo not given in full)",
    "assigned class": "Condition met"
  },
  {
    "compound": "COC(=O)C1C(C(=O)OC)[C@H]2C=C[C@@H]1O2 (stereo not given in full)",
    "assigned class": "Condition met"
  }
]

Ask: Item O=C1NC(=O)C2C1[C@@H]1C=C[C@H]2S1 (stereo not given in full) with inhibition of 3% or above?
Reply: Condition met
